Please go through the items and note down their Emax.
# measured-target: muscarinic M1 receptor (Homo sapiens)
# Construct: expressed in transfected cells
# Sequence (P11229 whole entry): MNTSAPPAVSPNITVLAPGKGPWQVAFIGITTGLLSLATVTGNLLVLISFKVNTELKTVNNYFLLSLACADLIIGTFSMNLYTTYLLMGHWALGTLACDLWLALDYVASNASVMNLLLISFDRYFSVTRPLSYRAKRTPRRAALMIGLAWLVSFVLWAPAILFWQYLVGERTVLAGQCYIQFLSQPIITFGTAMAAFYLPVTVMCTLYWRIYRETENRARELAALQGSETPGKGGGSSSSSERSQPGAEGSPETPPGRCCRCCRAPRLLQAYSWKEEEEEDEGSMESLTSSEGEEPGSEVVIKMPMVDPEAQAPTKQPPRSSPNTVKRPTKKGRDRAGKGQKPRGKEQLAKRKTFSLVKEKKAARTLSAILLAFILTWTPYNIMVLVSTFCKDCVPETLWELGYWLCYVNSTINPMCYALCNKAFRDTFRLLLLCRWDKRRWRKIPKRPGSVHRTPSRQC
# experimental-protocol: R-SAT functional screen, M1
# Type: cell-based
# condition-details: R-SAT; read-out: M1 eff (efficacy)
The answer is to be given in %; state only the numeric part.

Dear colleague, please send me the reported Emax for `Fc1ccc(CC2=Nc3cc(Cl)ccc3Nc3ccccc32)cc1` when you can.
3

Entry `NC1CCN(C2=Nc3cc(Cl)ccc3Nc3ccccc32)CC1` needs its Emax filled in; supply it.
6

# return recorded Emax for entry `Fc1ccc(C2=Nc3cc(Cl)ccc3Nc3ccccc32)cc1`
13

Please look at this compound and report its Emax: `Clc1cccc2c1C(N1CCNCC1)=Nc1cc(Br)ccc1N2`
66

Return the recorded Emax value; entry: `Clc1cc2c(cc1Cl)Nc1ccccc1C(N1CCNCC1)=N2`
32

Read the entry `Cc1ccc2c(c1)C(N1CCNCC1)=Nc1cc(C(F)(F)F)ccc1N2` and write its reported Emax.
15

Entry `Fc1ccc2c(c1)N=C(N1CCNCC1)c1ccccc1C2` needs its Emax filled in; supply it.
23

Return Emax (reported value) for this compound: `FC(F)(F)c1ccc2c(c1)N=C(N1CCNCC1)c1ccccc1N2`
53

Check the records and state Emax for CC1CN(C2=Nc3cc(Cl)ccc3Nc3ccccc32)CCN1 (stereo not drawn)
28

Using known records, supply Emax for `Cc1cccc2c1Nc1ccc(Cl)cc1N=C2N1CCNCC1`
92

Answer with reported Emax of `Clc1ccc2c(c1)N=C(c1ccncc1)c1ccccc1N2`
6

Look up and state reported Emax for `Ic1ccc2c(c1)N=C(N1CCNCC1)c1ccccc1N2`
75

Given the compound `Clc1ccc2c(c1)C(N1CCNCC1)=Nc1cc(Br)ccc1N2` , write its reported Emax.
10

Given `Clc1ccc2c(c1)Nc1ccccc1N=C2N1CCNCC1` , respond with its Emax.
16

Supply Emax value. Item: `c1ccc2c(c1)Sc1cc3c(cc1N=C2N1CCNCC1)OCCO3`
6

State, in one line, measured Emax of `c1ccc2c(c1)N=C(N1CCNCC1)c1ccccc1S2`
4

Look up and state reported Emax for NC1CCN(C2=Nc3cc(Cl)ccc3Nc3ccccc32)C1 (stereo not drawn)
8

Report measured Emax; entry is `CN1c2ccc(Br)cc2N=C(N2CCNCC2)c2ccccc21`
92

Supply measured Emax of `Cc1ccc2c(c1)C(N1CCNCC1)=Nc1ccccc1N2` in your reply.
1

Complete the entry with Emax for Brc1ccc2c(c1)N=C(N1CCNCC1)CC(c1ccccc1)N2 (stereo not drawn)
3

Indicate the recorded Emax value for this compound: `Clc1ccc2c(c1)N=C(c1cn[nH]c1)c1ccccc1N2`
9

Fill in reported Emax for this entry: `Clc1ccc2c(c1)N=C(N1CCNCC1)c1cc(Br)ccc1N2`
6

Please indicate Emax recorded for `Cc1ccc2c(c1)C(N1CCNCC1)=Nc1ccc(Cl)cc1N2`
-3

Entry `Clc1ccc2c(c1)N=C(N1CCNCC1)c1ccc(Cl)cc1N2` needs its Emax filled in; supply it.
34

Consider the compound `Brc1ccc2c(c1)N=C(N1CCNCC1)CCN2` and give its recorded Emax.
56

Query Emax for `c1ccc2c(c1)N=C(N1CCNCC1)c1ccccc1N2`
38

Tell me Emax reported for `Clc1ccc2c(c1)N=C(N1CCNCC1)c1ccccc1N2Cc1ccccc1`
41

====

I'd appreciate it if you could supply Emax values for the items below.
# measured-target: muscarinic M2 receptor (Homo sapiens)
# Construct: expressed in transfected cells
# Sequence (P08172 whole entry): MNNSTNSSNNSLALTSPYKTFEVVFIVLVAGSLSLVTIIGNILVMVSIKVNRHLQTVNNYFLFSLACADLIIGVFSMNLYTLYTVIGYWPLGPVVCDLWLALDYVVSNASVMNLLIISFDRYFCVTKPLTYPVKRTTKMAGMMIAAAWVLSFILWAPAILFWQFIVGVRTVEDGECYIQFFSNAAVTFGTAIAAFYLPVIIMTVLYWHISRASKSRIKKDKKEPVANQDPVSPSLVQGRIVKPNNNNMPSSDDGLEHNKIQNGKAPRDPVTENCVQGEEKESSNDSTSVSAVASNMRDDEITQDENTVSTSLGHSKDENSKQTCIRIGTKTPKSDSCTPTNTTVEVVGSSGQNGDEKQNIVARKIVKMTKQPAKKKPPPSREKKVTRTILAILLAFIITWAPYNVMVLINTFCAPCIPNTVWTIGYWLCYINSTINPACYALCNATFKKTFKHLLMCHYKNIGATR
# experimental-protocol: R-SAT functional screen, M2
# Format: cell-based
# condition-details: R-SAT; read-out: M2 eff (efficacy)
Your answer is read as %, so omit the unit and give the number.

Output measured Emax for this item: `Clc1ccc2c(c1)N=C(N1CCNCC1)c1ccccc1S2`
52

Please report Emax for the following molecule: C[C@@H]1CN(C2=Nc3cc(Cl)ccc3Nc3ccccc32)[C@@H](C)CN1 (relative stereo)
24

Indicate the recorded Emax value for this molecule: `CN1c2ccc(Br)cc2N=C(N2CCNCC2)c2ccccc21`
75

For `C=CCN1c2ccc(Cl)cc2N=C(N2CCNCC2)c2ccccc21` , write its Emax.
46

In one line, give reported Emax of the entry `Brc1ccc2c(c1)N=C(N1CCNCC1)c1cc(Br)ccc1O2` .
6

Tell us which Emax value is on record for `Cc1cccc2c1Oc1ccc(F)cc1N=C2N1CCNCC1`
50

Identify the reported Emax for the following entry. `Cc1cccc2c1Oc1cc(Cl)ccc1N=C2N1CCNCC1`
28

Report Emax for `Clc1ccc2c(c1)Nc1ccccc1C(N1CCNCC1)=N2`
53

Check the records and state Emax for Brc1ccc2c(c1)N=C(N1CCNCC1)CC(c1ccccc1)N2 (centres unmarked)
19

Please look at this molecule and report its Emax: `Fc1ccc(C2=Nc3cc(Cl)ccc3Nc3ccccc32)cc1`
4

Fill in reported Emax for this entry: `Clc1ccc2c(c1)Nc1ccccc1N=C2N1CCNCC1`
27

// fetch Emax given entry Clc1ccc2c(c1)N=C(NC1CCNC1)c1ccccc1N2 (centres unmarked)
18

Return Emax for the following molecule: `CCN(CC)CCNC1=Nc2cc(Cl)ccc2Nc2ccccc21`
9

Given `Clc1ccc2c(c1)N=C(NC[C@H]1CCCN1)c1ccccc1N2` , respond with its Emax.
5

State its Emax for this molecule: `COc1ccc2c(c1)C(N1CCNCC1)=Nc1cc(Cl)ccc1N2`
7

Respond only with Emax recorded for CC1CN(C2=Nc3cc(Cl)ccc3Nc3ccccc32)CCN1 (centres unmarked)
159

Tell me Emax reported for Brc1ccc2c(c1)N=C(N1CCNCC1)C1CCCC1N2 (centres unmarked)
12

Please give the documented Emax of `CN1CCN(C2=Nc3cc(Cl)ccc3Oc3ccccc32)CC1`
46

Supply Emax value. Item: `c1ccc2c(c1)N=C(N1CCNCC1)c1ccccc1S2`
41

Report Emax for `CN(C)CCNC1=Nc2cc(Cl)ccc2Nc2ccccc21`
11

# return recorded Emax for input `Clc1ccc2c(c1)N=C(c1ccncc1)c1ccccc1N2`
6

Identify Emax associated with the molecule `CCCCCCCCCc1ccc(C2=Nc3cc(Cl)ccc3Nc3ccccc32)cc1`
8

Output measured Emax for this item: `Fc1ccc2c(c1)N=C(N1CCNCC1)c1ccccc1N2`
95

Provide measured Emax value, entry: `O=S(=O)(Oc1ccc2c(c1)C(N1CCNCC1)=Nc1cc(Cl)ccc1N2)C(F)(F)F`
16

Recall and state the measured Emax for `Clc1ccc2c(c1)N=C(C1CCNCC1)c1ccccc1N2Cc1ccccc1` .
5

Check the records and state Emax for CC1CC(N2CCNCC2)=Nc2cc(Br)ccc2N1 (centres unmarked)
23

Return the recorded Emax value; entry: `O=S(=O)(Oc1ccc2c(c1)C(N1CCNCC1)=Nc1ccccc1O2)C(F)(F)F`
4

Determine its reported Emax: `COc1ccc2c(c1)Oc1ccccc1N=C2N1CCNCC1`
45

Supply measured Emax of `c1ccc(-c2ccc3c(c2)N=C(N2CCNCC2)c2ccccc2N3)cc1` in your reply.
104

Consider the molecule `Clc1ccc2c(c1)N=C(N1CCNCC1)c1cc(I)ccc1N2` and give its recorded Emax.
10

Output measured Emax for this item: `FC(F)(F)c1ccc2c(c1)N=C(N1CCNCC1)c1cc(Cl)ccc1N2`
19

Query Emax for `Clc1ccc2c(c1)Oc1ccc(Br)cc1C(N1CCNCC1)=N2`
15

Annotate the molecule `Clc1cccc2c1C(N1CCNCC1)=Nc1cc(Br)ccc1N2` with its measured Emax.
105

In one line, give reported Emax of the entry `Cc1ccc2c(c1)C(N1CCNCC1)=Nc1cc(Cl)ccc1N2` .
28

Identify the reported Emax for the following entry. `Cc1ccc2c(c1)N=C(N1CCNCC1)c1cc(Br)ccc1O2`
17

Quickly give me recorded Emax for `Fc1ccc(CC2=Nc3cc(Cl)ccc3Nc3ccccc32)cc1`
7

Fill in Emax for record `Cc1cccc2c1Oc1ccc(Cl)cc1N=C2N1CCNCC1`
71

Please report Emax for the following molecule: `Brc1ccc2c(c1)N=C(N1CCNCC1)c1ccccc1O2`
70

Answer with the recorded Emax for the molecule listed here: `Cc1ccc2c(c1)C(N1CCNCC1)=Nc1cc(C(F)(F)F)ccc1N2`
14

Please list Emax recorded for the molecule `Clc1ccc2c(c1)N=C(N1CCNCC1)c1c(Cl)cccc1N2`
84

Find the measured Emax of Clc1ccc2c(c1)N=C(N1CC3CC1CN3)c1ccccc1N2 (centres unmarked) and report it.
49

Look up and report measured Emax for this entry: `Clc1ccc2c(c1)N=C(N1CCNCC1)c1ccccc1O2`
58

Tell me Emax reported for `Cc1ccc2c(c1)N=C(N1CCNCC1)c1ccccc1O2`
76

Provide only the value of recorded Emax for Clc1ccc2c(c1)N=C(N1CCNC(c3ccccc3)C1)c1ccccc1N2 (centres unmarked)
23

Using the record for `c1ccc2c(c1)Sc1cc3c(cc1N=C2N1CCNCC1)OCCO3` , state its measured Emax.
28

Consider the molecule `CN1c2ccc(Cl)cc2N=C(N2CCNCC2)c2ccccc21` and give its recorded Emax.
138

Give a short answer stating reported Emax for `Brc1ccc2c(c1)N=C(N1CCNCC1)CCN2` .
3
